What pIC50 was measured for each of the following?
tested on: MRSA USA300 biofilms; experiment: Biofilm inhibition by >95% pure peptides (crystal violet), MRSA; assay type: cell-based, methicillin resistant Staphylococcus aureus; settings: MRSA, 24 hours
Where a SMILES comes first, the peptide text is derived from it. [ ]: non-standard residue; d: D form.
One number for each entry, as −log10 of the molar value.

Known results for compounds:
Tell us which pIC50 value is on record for CC[C@@H](C)[C@@H](NC(=O)[C@@H](CCCNC(=N)N)NC(=O)[C@@H](CCCCN)NC(=O)[C@@H](CCCNC(=N)N)NC(=O)[C@H](NC(=O)[C@H](NC(=O)[C@@H](CCCNC(=N)N)NC(=O)[C@H](NC(=O)[C@H](N)CCCNC(=N)N)C(C)C)C(C)C)[C@H](C)CC)C(=O)N[C@H](CCCNC(=N)N)C(=O)N[C@H](Cc1c[nH]c2ccccc12)C(=O)N[C@@H](C(N)=O)C(C)C [AB102-D, rvrvirkrirwv-NH2] (H-[dR][dV][dR][dV][dI][dR][dK][dR][dI][dR][dW][dV]-NH2)
6.82

Tell us which pIC50 value is on record for CC[C@@H](C)[C@@H](NC(=O)[C@@H](C)NC(=O)[C@@H](CCCNC(=N)N)NC(=O)[C@@H](Cc1c[nH]c2ccccc12)NC(=O)[C@@H](CCC(N)=O)NC(=O)[C@H](N)C(C)C)C(=O)N[C@H](CCCNC(=N)N)C(=O)N[C@@H](C(=O)N[C@H](CCCNC(=N)N)C(=O)N[C@@H](C(=O)N[C@@H](C(=O)N[C@H](CCCNC(=N)N)C(N)=O)[C@H](C)CC)C(C)C)C(C)C [DJK5, vqwrairvrvir-NH2] (H-[dV][dQ][dW][dR][dA][dI][dR][dV][dR][dV][dI][dR]-NH2)
6.46

Now, please, on to the next compound.
Tell us which pIC50 value is on record for CC[C@@H](C)[C@@H](NC(=O)[C@@H](C)NC(=O)[C@@H](CCCNC(=N)N)NC(=O)[C@@H](Cc1c[nH]c2ccccc12)NC(=O)[C@@H](CCC(N)=O)NC(=O)[C@H](NC(=O)[C@@H](CCCNC(=N)N)NC(=O)[C@H](NC(=O)[C@H](NC(=O)[C@@H](CCCNC(=N)N)NC(=O)[C@H](NC(=O)[C@H](N)CCCNC(=N)N)C(C)C)C(C)C)[C@H](C)CC)C(C)C)C(N)=O [AB103-D, rvrvirvqwrai-NH2] (H-[dR][dV][dR][dV][dI][dR][dV][dQ][dW][dR][dA][dI]-NH2)
6.47
